Conditions: in water, 308.15 K
Reported endpoint: solubility (mole fraction)
Note: the reply should be a number with no unit written.

Could you share which solubility (mole fraction) value was measured for `C[C@@H]1O[C@@H](O[C@H]2[C@H](Oc3cc(O)c4c(c3)O[C@H](c3ccc(O)cc3)CC4=O)O[C@H](CO)[C@@H](O)[C@@H]2O)[C@H](O)[C@H](O)[C@H]1O` ?
1.1e-05

Origin of the recorded values: BigSolDB 2.1
